- measured_target: Potassium voltage-gated channel subfamily KQT member 1 (Homo sapiens) (UniProt P51787)
- Sequence (P51787 whole entry, looked up): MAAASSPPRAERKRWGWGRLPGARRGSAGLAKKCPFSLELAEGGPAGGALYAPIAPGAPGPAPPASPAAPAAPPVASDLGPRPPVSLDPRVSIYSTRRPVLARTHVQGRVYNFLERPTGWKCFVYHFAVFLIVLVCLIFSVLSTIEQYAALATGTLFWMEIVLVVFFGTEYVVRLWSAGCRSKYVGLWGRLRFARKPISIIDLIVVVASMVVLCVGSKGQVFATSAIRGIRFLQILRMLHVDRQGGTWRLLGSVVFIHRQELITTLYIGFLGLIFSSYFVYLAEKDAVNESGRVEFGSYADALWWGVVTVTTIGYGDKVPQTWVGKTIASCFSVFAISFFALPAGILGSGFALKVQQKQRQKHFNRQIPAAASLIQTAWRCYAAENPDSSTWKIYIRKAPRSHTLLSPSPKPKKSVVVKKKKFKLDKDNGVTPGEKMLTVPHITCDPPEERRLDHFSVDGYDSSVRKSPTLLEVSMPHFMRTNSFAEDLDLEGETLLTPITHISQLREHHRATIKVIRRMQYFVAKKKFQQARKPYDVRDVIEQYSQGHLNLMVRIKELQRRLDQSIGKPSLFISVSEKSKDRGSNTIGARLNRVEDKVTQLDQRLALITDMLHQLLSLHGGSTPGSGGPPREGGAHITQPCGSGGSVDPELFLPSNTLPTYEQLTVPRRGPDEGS
- procedure_details: KCNQ1 potassium channel potentiators, confirmation, FluxOR thallium flux, CHO cells, duplicates (AID 493007);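 on outcome: cells depolarized by a potassium plus thallium sulfate stimulus after compound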
- condition_notes: KCNQ1 cell line, FluxOR thallium flux fluorescence, at 10 µM, % of reference activator effect, buffer zero
Activity calls are given as the source filed them.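 How the source made its calls: active means potentiation averaged over duplicate wells exceeding buffer-only control mean by more than 3 SD; inactive means the rest.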
Please state which outcome applies, choosing from 1 (active), 0 (inactive)

Outcome logged for "O=C(O)CCC(=O)Nc1ccc(-c2nc3ccc(C(=O)c4ccccc4)cc3[nH]2)cc1" in this assay:
0

Then this molecule: "CCCN1C(=O)/C(=C/c2ccc(C)s2)NC1=S"
1

Then this molecule: CC1CN(C(=O)C2CC(=O)N(c3ccc(Cl)cc3)C2)CC(C)O1 (stereo not drawn)
0

Then this molecule: "CCOc1cccc2sc(NC(=O)c3ccc(Br)s3)nc12"
0

Then this molecule: "O=C(NC(=S)N1CCN(c2ccc(F)cc2)CC1)c1cccs1"
1

Then this molecule: "CN1CCN(C(=O)/C(=C/c2ccccc2)c2ccccc2)CC1"
0

Then this molecule: "COc1ccc(-c2csc(NC(=O)C3=NN(c4ccccc4)C(=O)CC3)n2)cc1"
1

Then this molecule: COC(=O)C1CCCN1C(=O)COc1ccc(Cl)cc1Br (stereo not drawn)
0

Then this molecule: "O=C(NC(=S)Nc1nc2c(s1)CCCC2)c1ccccc1"
1

Then this molecule: "CC(=O)NC(C1C(=O)CC(C)(C)CC1=O)(C(F)(F)F)C(F)(F)F"
0

Then this molecule: "Cc1ccc(-c2csc(NC(=O)Cc3ccc(F)cc3)n2)o1"
0

Then this molecule: "S=c1nc(-c2ccc(Br)cc2)oc2c1CCCC2"
1

Then this molecule: "O=C(O)/C=C/C(=O)c1ccc2c(c1)CCc1ccccc1-2"
0

Then this molecule: "Cc1ccc2cc(CN(C(=O)c3ccco3)c3ccccc3C)c(=O)[nH]c2c1"
0

Then this molecule: "NC(=O)c1nsc(C(=O)N(CC(=O)NC2CCCCC2)c2ccc(Cl)cc2)c1N"
0

Then this molecule: "C=CCOc1c(Br)cc(/C=N/Nc2ccc(C(=O)O)cc2)cc1OCC"
0

Then this molecule: "CCN(CC)c1ccc(/C=N/Nc2nc3ccccc3[nH]2)c(O)c1"
0

Then this molecule: "Cc1ccc(Cl)cc1N1CCN(C(=O)c2ccc(CN3CCOCC3)cc2)CC1"
0

Then this molecule: "O=C(NNC(=O)c1ccc2ccccc2c1O)c1cccs1"
0

Then this molecule: "CCn1c(=S)[nH]c2sc3c(c2c1=O)CCCC3"
1

Then this molecule: CC(c1nccs1)N(C)C(=O)CCc1nnc(Cc2c[nH]c3ccccc23)o1 (stereo not drawn)
0

Then this molecule: "Cc1ccc(Sc2ccc(CN3CCCC3)cc2[N+](=O)[O-])cc1"
0

Then this molecule: "O=C(NC(=S)Nc1nc2c(s1)CCCC2)c1ccc(C(=O)c2ccccc2)cc1"
1

* * *

- procedure_details: calcium flux activation in mu-opioid HEK293 cells, confirmation, counter-screen for TRPC4 activator project, cell-based, HEK293 mu-opioid receptor line (AID 449723);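 further: counter screen cells carry the mu-opioid receptor alone and lack TRPC4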
- condition_notes: Fluo-4 calcium fluorescence, at 10 µM
Active and inactive are the calls of the source.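 Rule for the calls: active = hit in primary screen, with calcium signal over 5 SD above buffer well mean in both duplicates; inactive = the rest.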
Please state which outcome applies, choosing from T = active, F = inactive

Outcome logged for O=C(c1sc2ccccc2c1Cl)N(Cc1ccco1)C1CCS(=O)(=O)C1 (stereo unspecified) in this assay:
F

Then this compound: "CCOC(=O)C1(CCOc2ccccc2)CCN(Cc2ccc3c(c2)OCCO3)CC1"
F

Then this compound: "C=CCn1c(CCNC(=O)c2ccco2)nc2ccccc21"
F

Then this compound: Fc1ccc(C2CCNCC2COc2ccc3c(c2)OCO3)cc1 (stereo unspecified)
T

Then this compound: CN1C2C=C(N(CCc3c[nH]c4ccccc34)C(=O)c3ccc(Cl)cc3)CC1CC2 (stereo unspecified)
F

Then this compound: C#Cc1cccc(C(=O)NC2CCCN(C3Cc4ccccc4C3)C2)c1 (stereo unspecified)
F

Then this compound: O=C1CC(O)(C(F)(F)F)Oc2c1ccc1ccccc21 (stereo unspecified)
T

Then this compound: COc1ccc(C(CNC(=O)c2cc(SC)ccc2Cl)N(C)C)cc1 (stereo unspecified)
F

Then this compound: CN(C)C1(CNC(=O)CC(NC(=O)c2ccccc2Cl)c2ccccc2)CCCCC1 (stereo unspecified)
F

Then this compound: Cc1ccc(C2(O)CN(c3ccccc3)C3=[N+]2CCS3)cc1 (stereo unspecified)
F

Then this compound: "Cc1onc(-c2ccccc2)c1C(=O)NC(=S)NNC(=O)c1ccco1"
F

Ref: PubChem BioAssay
